The entries below come with measured viability at 300 µM values attached.
Experiment: Cytotoxicity against human SH-SY5Y cells assessed as cell viability at 300 uM by MTT assay
Format: cell-based
Settings: read-out: Activity

molecule | viability at 300 µM / %
CC(C)(C)OO [TERT-BUTYL HYDROPEROXIDE] | 72
CC(C)(OO)c1ccccc1 [CUMENE HYDROPEROXIDE] | 64
